Entries annotated with measured pIC50
# measured.on: Apoptosis regulator Bcl-2 (Homo sapiens, UniProt P10415)
# Sequence (P10415 whole entry): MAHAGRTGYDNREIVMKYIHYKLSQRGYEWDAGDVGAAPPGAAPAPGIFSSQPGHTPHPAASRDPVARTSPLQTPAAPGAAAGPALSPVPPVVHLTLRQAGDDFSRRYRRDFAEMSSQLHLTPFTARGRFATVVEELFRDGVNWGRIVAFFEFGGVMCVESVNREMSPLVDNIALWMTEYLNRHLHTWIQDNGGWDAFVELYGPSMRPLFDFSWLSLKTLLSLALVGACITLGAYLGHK
# protocol.details: Inhibition of Bcl-2 (unknown origin) by fluorescence polarization assay
pIC50: −log10 of the molar value.

molecule	pIC50
CC1=C(C2=C(C)C(=O)c3c(cc(O)c(O)c3Cc3ccccc3)C2=O)C(=O)c2cc(O)c(O)c(Cc3ccccc3)c2C1=O	5.89
CC(C)=CCC[C@]1(C)C=Cc2c(O)c3c(c(CC=C(C)C)c2O1)O[C@]12C(=C[C@@H]4C[C@H]1C(C)(C)O[C@@]2(C/C=C(/C)C(=O)O)C4=O)C3=O [GAMBOGIC ACID]	6.91
